Tested on: HIV (LAV strain)
Experiment: anti-HIV/LAV activity in cultures of CEM-F cells, p-24 gag protein enzyme capture assay (ELISA)
Type: cell-based
Conditions: Human immunodeficiency virus 1, CCRF-CEM, 192 h, read-out: ID₅₀
pIC50: −log10 of the molar value.
Would you please tag the item 1 when its pIC50 is 6 or above, and -1 when it is below?

COMPOUND	CATEGORY_LABEL
CC(=O)OC[C@@H]1C=C[C@H](n2cc(C)c(=O)[nH]c2=O)O1	-1
Cc1cn([C@H]2C=C[C@@H](COC(=O)OC3CCCCC3)O2)c(=O)[nH]c1=O	1
COC(=O)OC[C@@H]1C=C[C@H](n2cc(C)c(=O)[nH]c2=O)O1	-1
COCC(=O)OCC1C=CC(n2cc(C)c(=O)[nH]c2=O)O1 (stereo not shown)	1
Cc1cn([C@H]2C=C[C@@H](CO)O2)c(=O)[nH]c1=O [d4T, 2′,3′-didehydro-2′,3′-dideoxythymidine, reference compound]	1
Cc1cn([C@H]2C=C[C@@H](COC(=O)C(C)(C)C)O2)c(=O)[nH]c1=O	-1
Cc1cn(C2C=CC(COC(=O)c3ccccc3)O2)c(=O)[nH]c1=S (stereo not shown)	1

All figures here come from patent EP0340778A2.
